The reported numbers originate from paper PMC10397247.

Target: T1, 4H797-AA
T1 chain: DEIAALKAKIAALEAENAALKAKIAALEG
Assay: two-hybrid library CCmax;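 also: natural log of median RNA to DNA barcode read ratio; higher means stronger binding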
Details: mean of both orientations
Please assign Not met whenever interaction score is at or above -1, and Met whenever it is below.

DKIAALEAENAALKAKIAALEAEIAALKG [4H2274-AA] | Met
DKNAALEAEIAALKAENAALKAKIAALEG [4H3165-AA] | Not met
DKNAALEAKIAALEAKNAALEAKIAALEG [4H3381-AA] | Met
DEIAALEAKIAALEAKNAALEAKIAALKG [4H310-AA] | Not met
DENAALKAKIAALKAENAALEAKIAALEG [4H1877-AA] | Not met

// query Below -1 on interaction score? Entry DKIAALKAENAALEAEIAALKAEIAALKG [4H2698-AA]
// result Met

// query Would you kindly repeat that for DEIAALKAEIAALKAKNAALEAKIAALEG [4H629-AA] ?
// result Met
